Where do these numbers come from? They come from patent US5428168A.

- test_target: PAF receptor (Homo sapiens)
- Construct: Platelet concentrates were obtained from a hospital blood bank
- Sequence (P25105 whole entry): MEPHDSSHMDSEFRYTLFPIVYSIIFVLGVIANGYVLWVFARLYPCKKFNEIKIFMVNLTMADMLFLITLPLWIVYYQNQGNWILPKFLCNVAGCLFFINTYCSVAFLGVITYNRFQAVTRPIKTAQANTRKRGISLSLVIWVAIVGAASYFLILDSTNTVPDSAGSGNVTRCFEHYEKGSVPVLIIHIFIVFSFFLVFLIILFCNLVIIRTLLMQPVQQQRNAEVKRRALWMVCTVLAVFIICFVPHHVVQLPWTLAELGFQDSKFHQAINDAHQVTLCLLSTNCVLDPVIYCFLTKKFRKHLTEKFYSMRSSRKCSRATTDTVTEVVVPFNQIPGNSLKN
- protocol_text: Inhibition of [3H]-PAF receptor binding to human platelet plasma membrane (isotopic labelling and filtration)
- reported_conditions: human platelet membranes, 0.5 nM [3H]-PAF, 0° C., 1 hour
- Protocol: Compounds of general formula I inhibit PAF-induced functions in both the cellular and tissue levels by changing the PAF binding to its specific receptor site. The ability of compounds of general formula I to inhibit the binding of PAF to its specific receptor binding site on human platelet plasma membranes was measured according to the pharmacological example. […] Platelet concentrates were obtained from a hospital blood bank. […]
pIC50: −log10 of the molar value.
observation_type: pIC50

Check out these entries, answers already filled in.
molecule: COc1ccc(C2CCC(OCCCC#Cc3cccnc3)O2)cc1OC (stereo not shown)
test_target: PAF receptor (Homo sapiens)
pIC50: 5.30
--
molecule: COc1ccc(C2CCC(OCCCCc3cccnc3)O2)cc1OC (stereo not shown)
test_target: PAF receptor (Homo sapiens)
pIC50: 5.22
--
molecule: COc1ccc([C@H]2CC[C@@H](OCCCc3ccc[n+](C)c3)O2)cc1OC (relative stereo) [Comparative Example B, reference compound]
test_target: PAF receptor (Homo sapiens)
pIC50: 6.00

[A] COc1ccc(C2CCC(OCc3ccc(Cn4c(C)nc5ccccc54)cc3)O2)cc1OC (stereo not shown)
[B] COc1ccc([C@H]2CC[C@H](OCCCc3cccnc3)O2)cc1OC (relative stereo)
[C] COc1ccc([C@H]2CC[C@@H](OC/C=C/c3cccnc3)O2)cc1OC (relative stereo) [Example 10B]
// ranking: key=pIC50, reverse=True Form field (ranking): labels in requested order. C, A, B
(C: 6.82, A: 5.70, B: 5.40)

[1] Cc1nc2cnccc2n1CCCOC1CCC(c2ccc(Cl)c(Cl)c2)O1 (stereo not shown)
[2] COc1ccc([C@H]2CC[C@H](OCCCCCc3cccnc3)O2)cc1OC (relative stereo)
Sorting ascending by pIC50, which comes first: 1 or 2 ? Could you answer with the label of the item you picked? 2
(2: 4.92, 1: 8.30)
